Hey, just so you know, these numbers are from the METLIN SMRT retention time set (Domingo-Almenara et al. 2019).

Protocol: gradient 5% acetonitrile 3 min, to 50% in 2 min, to 85% in 15 min, held 3 min, 100 µL/min
Experimental setup: column: Zorbax Extend-C18 2.1 x 50 mm; eluents: water / acetonitrile, 0.1% formic acid
With a cut-off of 900 s, any RP-LC retention time strictly below it is called True; any RP-LC retention time meeting it or above is called False.

# count of solved cases: 8
IN: RP-LC retention time under 900 s? Item: `Cc1ccc(S(=O)(=O)N2CCC3(CC2)NCCN=C3NCc2ccccc2C)c(C)c1`
OUT: True

IN: # TODO verify RP-LC retention time < 900 s strictly for this molecule: `CCCNC(=O)C1CCN(c2ccc(SCC(=O)Nc3ccc(C)c(C)c3)nn2)CC1`
OUT: True

IN: Strictly below 900 s in RP-LC retention time? `O=C(Nc1cccn2nc(C3CCC3)nc12)c1ccc(C(F)(F)F)s1`
OUT: False

IN: RP-LC retention time under 900 s? Item: O=C(Nc1ccc(F)c(F)c1)C1CCN(C(=O)c2ncn3c2COC(c2ccc(F)cc2)C3)CC1 (centres undefined)
OUT: True

IN: Could you please tell me whether RP-LC retention time recorded for `Cc1cccc(-c2nc3ccccn3c2NC(=O)NCc2cccc(F)c2)c1` is less than 900 s?
OUT: True

IN: Dear reviewer, please state whether `O=C(c1ccc(F)cc1)N1CCN(c2nnc3ccccn23)CC1` has RP-LC retention time strictly beneath 900 s.
OUT: True

IN: Input `Cc1ccc(C(=O)N2CCN(c3cc(-c4cccs4)[nH]n3)CC2)cc1C` ; condition: RP-LC retention time strictly below 900 s. Does it hold?
OUT: True

IN: Is 900 s strictly greater than the molecule's reported RP-LC retention time? molecule: CC(NC(=O)c1ccccc1)c1nc(-c2ccc3nnn(C)c3c2)no1 (centres undefined)
OUT: True

New cases:
IN: Does CC(C)NC(=O)C1CCCN(c2nc3ncn(CC(=O)NC4CCCCC4)c(=O)c3s2)C1 (centres undefined) have RP-LC retention time strictly under 900 s?
OUT: True

IN: Please indicate whether the reported RP-LC retention time of `CCN1CCC(N(Cc2cccs2)C(=O)Nc2cc(OC)c(OC)c(OC)c2)CC1` is strictly below 900 s.
OUT: True

IN: RP-LC retention time under 900 s? Item: `C=CCOc1c(CCC)cc(CCC)cc1C(N)=O`
OUT: False

---

Protocol: gradient 5% acetonitrile 3 min, to 50% in 2 min, to 85% in 15 min, held 3 min, 100 µL/min
Experimental setup: column: Zorbax Extend-C18 2.1 x 50 mm; eluents: water / acetonitrile, 0.1% formic acid
Measurement kind: RP-LC retention time (s)
Reply numerically in s, unit not repeated.

As a guide, the following entries are already answered.
IN: # lookup: RP-LC retention time of `COc1cccc2sc(N(C)CC(=O)Nc3ccc(-n4cnnn4)cc3)nc12`
OUT: 729

IN: What measured RP-LC retention time goes with `CCc1ccc(S(=O)(=O)N2CCC(n3cnnc3CC)CC2)cc1` ?
OUT: 746

IN: Fill blank: measured RP-LC retention time of the molecule `CC(C)CC(=O)Nc1ccc2nc(N3CCN(c4ccc(Cl)cc4)CC3)cc(C(=O)O)c2c1` is ____.
OUT: 746

IN: Recorded RP-LC retention time of `COc1ccc(N2C=C(C(=O)N3CCCCC3)S(=O)(=O)c3ccccc32)cc1` , please.
OUT: 859

--- query ---
IN: Query (molecule): `O=C1NCCCc2c1oc1ccc(O)cc21` ; field requested: RP-LC retention time
OUT: 567

---

Protocol: gradient 5% acetonitrile 3 min, to 50% in 2 min, to 85% in 15 min, held 3 min, 100 µL/min
Experimental setup: column: Zorbax Extend-C18 2.1 x 50 mm; eluents: water / acetonitrile, 0.1% formic acid
Catalogue of compounds with associated RP-LC retention time
Entry rule: numbers only, all in s.

IN: Requested field: RP-LC retention time. Item: Cc1[nH]c(C(=O)N2CCCC(C(=O)NCc3ccc4c(c3)OCO4)C2)c(C)c1C (stereo not given)
OUT: 804

IN: Please give the measured RP-LC retention time for this compound: `Cc1noc(C)c1CN1CCN(C(=O)NCc2ccc(F)cc2)CC1`
OUT: 598

IN: Need RP-LC retention time of `O=C(Nc1cccc(-c2ccn[nH]2)c1)c1ccco1` , thanks.
OUT: 631

IN: Entry `O=C(CSCc1ccccc1)N1CCC(Cn2cccn2)CC1` : reported RP-LC retention time = ?
OUT: 721

---
IN: I have this compound here, `COc1cccc(OC)c1C(=O)Nc1ccc2c(c1)Sc1ncccc1C(=O)N2C` , and I need its recorded RP-LC retention time.
OUT: 706

IN: Entry `CN(C)c1ccc(CNC(=O)Cn2nc(C(=O)N3CCCC3)c3ccccc32)cc1` has what RP-LC retention time?
OUT: 612

IN: Consider the compound `CNC(=O)c1ccc(-c2nc3cc(NS(=O)(=O)c4ccc(Br)cc4)ccc3n2C)cc1` and give its measured RP-LC retention time.
OUT: 673

IN: Consider the compound shown here: `COc1ccccc1-c1nc(-c2cn(Cc3ccc(F)cc3)nn2)no1` What is its recorded RP-LC retention time?
OUT: 927

IN: So what's the measured RP-LC retention time for this one? `Cn1nccc1C(=O)N1CCC(c2nncn2Cc2ccccc2)CC1`
OUT: 624

IN: Fill in the blank: the reported RP-LC retention time of `COc1ccc(Cc2nnc3sc(COc4ccc(OC)cc4)nn23)cc1` is ____.
OUT: 902

---

Protocol: gradient 5% acetonitrile 3 min, to 50% in 2 min, to 85% in 15 min, held 3 min, 100 µL/min
Experimental setup: column: Zorbax Extend-C18 2.1 x 50 mm; eluents: water / acetonitrile, 0.1% formic acid
Overview of recorded RP-LC retention time for various compounds
The figure you give is taken to be in s; do not add the unit.

Examples from the recorded data:
IN: Query: RP-LC retention time; subject: Cc1cc2nc(Nc3ncc4c(n3)CC(c3ccccc3)CC4=O)nc(C)c2cc1C (centres undefined)
OUT: 793

IN: Which RP-LC retention time value belongs to COc1ccc(-c2nc(C3CC(=O)N(c4ccc(C)cc4)C3)no2)cc1OC (centres undefined) ?
OUT: 937

Continuing:
IN: What value of RP-LC retention time has been reported for the following compound? CCc1cccc(NC(=O)C2CCc3nc(N4CCOCC4)ncc3C2)c1 (centres undefined)
OUT: 839

IN: Look at this compound and give its reported RP-LC retention time. `Cc1cc(=O)n(CC(=O)Nc2ccc3c(c2)OCO3)c(N2CCCCC2)n1`
OUT: 666

IN: Any idea what RP-LC retention time was measured for `CC(C)c1csc(-c2csc(S(=O)(=O)NC3CCCCC3)c2)n1` ?
OUT: 1180

---

Protocol: gradient 5% acetonitrile 3 min, to 50% in 2 min, to 85% in 15 min, held 3 min, 100 µL/min
Experimental setup: column: Zorbax Extend-C18 2.1 x 50 mm; eluents: water / acetonitrile, 0.1% formic acid
RP-LC retention time by entry:
Give a bare numeral; the unit s is implied.

See these solved cases before continuing.
IN: Can you share its RP-LC retention time? I mean this compound: `COc1ccc(Cc2nc(-c3ccc4c(c3)nc(C)c(=O)n4C)no2)cc1`
OUT: 927

IN: // lookup RP-LC retention time for CCC(CO)NCC(O)COCc1ccc(Cl)cc1 (centres undefined)
OUT: 552

IN: Endpoint output: RP-LC retention time of `CC(C)n1cc(CN2CCOCCNC(=O)CC2)c2ccccc21` . Value?
OUT: 631

Further cases:
IN: Fill blank: measured RP-LC retention time of the compound `NC(=O)C1CCN(C(=O)c2ccc(CN3C(=O)CCn4nc(-c5ccc(Cl)cc5)cc43)cc2)CC1` is ____.
OUT: 713

IN: Form field: reported RP-LC retention time of `COc1ccccc1NC(=O)c1c(NC(=O)C(C)C)sc2c1CCC2`
OUT: 815

IN: So what's the measured RP-LC retention time for this one? Cc1ccc(S(=O)(=O)N2CCCC(CCC(=O)N3CCCCC3)C2)cc1 (centres undefined)
OUT: 962

IN: What value of RP-LC retention time has been recorded for this entry: `CC(C)NC(=O)c1nc(-c2ccnc(N3CCCCC3)c2)no1`
OUT: 671

IN: Look up RP-LC retention time for this compound: O=C(c1ccccn1)N1CCCC1c1nc(-c2ccc(F)cc2F)no1 (centres undefined)
OUT: 832

IN: Quick check: RP-LC retention time of `Cc1cnc(C2CNC2)n1Cc1ccccc1` ?
OUT: 589

IN: # RP-LC retention time lookup, item `O=C1Nc2ccc(I)cc2C1=Cc1cc(Br)c(O)c(Br)c1`
OUT: 1090

IN: Could you tell me which RP-LC retention time is on file for `CCCCN1N=C(C(=O)N2CCOCC2)S(=O)(=O)c2cc(Cl)ccc21` ?
OUT: 862

IN: Give its RP-LC retention time value. Item: COc1ccc(NC(=O)C2c3ccccc3C(=O)N3CCc4cc(OC)c(OC)cc4C23)c(OC)c1 (centres undefined)
OUT: 814

IN: Name the reported RP-LC retention time value associated with the compound Cc1noc(C2CN(C(=O)Nc3ccccc3C)CC23CCOCC3)n1 (centres undefined)
OUT: 700

IN: RP-LC retention time lookup needed for `Cc1ccc(C)c(NC(=O)CSc2nc(N3CCCCC3)nc3ccccc23)c1` , thanks.
OUT: 804

IN: Reported RP-LC retention time, compound `Cc1nc(C)c(C(=O)N2CCC3(CC2)CCC(O)(CN(C)C)CC3)s1` : ____
OUT: 555

IN: Any idea what RP-LC retention time was measured for `O=C(O)c1cccc(Nc2c(-c3ccc(Cl)cc3)nc3cnccn23)c1` ?
OUT: 757

IN: Recorded RP-LC retention time of O=C(NC1CCN(c2cc(N3CCOCC3)cnn2)C1)c1ccc(Cl)s1 (centres undefined) , please.
OUT: 610

IN: Name the recorded RP-LC retention time for O=C(CN1C(=O)C(C(=O)N2CCCC2)Sc2ccccc21)NCCc1ccccc1 (centres undefined) .
OUT: 898

IN: What value of RP-LC retention time has been reported for the following compound? `C[C@@H]1CN(C(=O)c2ccsc2)C[C@H]1c1nc(-c2ccccc2)no1`
OUT: 935

IN: Using the record for `COc1ccc(CCNC(=O)C2=C3CCCN3c3ccc(F)cc3S2(=O)=O)cc1OC` , report its RP-LC retention time.
OUT: 790

IN: # lookup: RP-LC retention time of CCOCCCNC(=O)C(C)n1nc(C)c2c(C)n(-c3ccccc3)nc2c1=O (centres undefined)
OUT: 721

IN: Fill in: RP-LC retention time of CC(=O)NCc1csc(C2CCCN(C(=O)COc3ccccc3)C2)n1 (centres undefined) is ___
OUT: 670

IN: Using the record for COc1ccccc1CNC(=O)C1CCCN(C(=O)C2Sc3ccccc3NC2=O)C1 (centres undefined) , report its RP-LC retention time.
OUT: 736

IN: Report RP-LC retention time for `CC(C)c1nc2c(NC(=O)c3ccsc3)cccn2n1` please.
OUT: 866

IN: Any idea what its RP-LC retention time is? The compound is `CCCN1CCN(C(=O)c2cccn2Cc2noc(-c3ccccc3)n2)CC1`
OUT: 653

IN: Give its RP-LC retention time value. Item: `COc1ccc(-c2nc(-c3nnn(-c4ccccc4)c3C)no2)cc1OC`
OUT: 892

IN: GET /values?readout=RP-LC retention time&item= O=C(NC1CCS(=O)(=O)C1)C1CCN(C(=O)C2CC(=O)N(c3ccc(F)cc3)C2)CC1 (centres undefined)
OUT: 633
